In this section, each of the molecules is paired with its reported viability, T/C.
# System: 377384-186-R-J1-PDC complex spheroid viability;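 further: spheroids exposed to compounds for seven days before readout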
# protocol notes: Anticancer human tumor 377384-186-R-J1-PDC patient-derived pancreatic carcinoma cell line growth inhibition [RAS]
# settings: second compound 3.16 µM; first compound 10 µM; active compounds read low
metric: viability, T/C (%)

1) CCC(CC)c1cc(NC2CCC(N)C2)n2nccc2n1 (stereo not given) + C#Cc1c(F)ccc2cc(O)cc(-c3ncc4c(N5CC6CCC(C5)N6)nc(OCC56CCCN5CC(F)C6)nc4c3F)c12
6.5
2) CC(C)NCC(C(=O)N1CCN(c2ncnc3c2C(C)CC3O)CC1)c1ccc(Cl)cc1 (stereo not given) + C#Cc1c(F)ccc2cc(O)cc(-c3ncc4c(N5CC6CCC(C5)N6)nc(OCC56CCCN5CC(F)C6)nc4c3F)c12
0.64
3) Cc1nc(N2CCC3(CC2)COC(C)C3N)c(CO)nc1Sc1ccnc(N)c1Cl (stereo not given) + C#Cc1c(F)ccc2cc(O)cc(-c3ncc4c(N5CC6CCC(C5)N6)nc(OCC56CCCN5CC(F)C6)nc4c3F)c12
0.33
4) C[C@@H](NC(=O)c1ncnc(N)c1Cl)c1ncc(C(=O)Nc2cc(C(F)(F)F)c(Cl)cn2)s1 + C#Cc1c(F)ccc2cc(O)cc(-c3ncc4c(N5CC6CCC(C5)N6)nc(OCC56CCCN5CC(F)C6)nc4c3F)c12
4.87
5) CC1(O)CCCC1n1c(=O)c(C(F)F)cc2cnc(NC3CCN(S(C)(=O)=O)CC3)nc21 (stereo not given) + C#Cc1c(F)ccc2cc(O)cc(-c3ncc4c(N5CC6CCC(C5)N6)nc(OCC56CCCN5CC(F)C6)nc4c3F)c12
6.51
